Where do the numbers come from? From the supplement of paper PMC12632987.

Molecular target: T1, USP38, Q8NB14
T1 chain: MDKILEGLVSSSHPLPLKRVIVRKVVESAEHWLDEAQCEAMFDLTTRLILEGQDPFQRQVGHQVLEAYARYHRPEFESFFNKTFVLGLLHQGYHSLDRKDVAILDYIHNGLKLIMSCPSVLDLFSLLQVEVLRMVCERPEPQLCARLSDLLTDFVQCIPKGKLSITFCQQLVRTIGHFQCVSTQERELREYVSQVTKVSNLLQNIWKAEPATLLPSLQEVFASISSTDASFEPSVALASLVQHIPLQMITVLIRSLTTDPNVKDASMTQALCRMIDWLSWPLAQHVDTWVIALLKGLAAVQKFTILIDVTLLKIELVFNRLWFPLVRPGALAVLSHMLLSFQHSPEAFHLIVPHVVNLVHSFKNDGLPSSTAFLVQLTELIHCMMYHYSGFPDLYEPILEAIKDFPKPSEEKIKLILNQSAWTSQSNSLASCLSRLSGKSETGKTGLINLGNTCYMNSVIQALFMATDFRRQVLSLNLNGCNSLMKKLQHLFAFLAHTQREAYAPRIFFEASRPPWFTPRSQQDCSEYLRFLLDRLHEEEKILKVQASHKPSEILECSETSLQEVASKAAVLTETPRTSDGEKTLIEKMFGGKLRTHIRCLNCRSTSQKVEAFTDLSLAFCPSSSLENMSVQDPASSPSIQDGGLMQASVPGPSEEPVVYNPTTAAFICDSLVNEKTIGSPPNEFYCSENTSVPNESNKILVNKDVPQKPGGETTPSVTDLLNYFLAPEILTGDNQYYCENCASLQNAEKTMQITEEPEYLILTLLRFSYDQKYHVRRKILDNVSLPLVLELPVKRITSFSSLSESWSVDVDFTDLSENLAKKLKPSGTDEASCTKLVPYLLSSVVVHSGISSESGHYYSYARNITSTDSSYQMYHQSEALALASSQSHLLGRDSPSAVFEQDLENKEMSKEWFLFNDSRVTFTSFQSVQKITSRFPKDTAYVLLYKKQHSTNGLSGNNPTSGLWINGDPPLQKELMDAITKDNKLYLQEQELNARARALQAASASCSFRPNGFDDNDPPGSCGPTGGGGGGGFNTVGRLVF
Assay: median log2 fold change of GCK-ALFA target abundance (FLAG IP / Myc IP barcode read proportion) (log2 ratio); each designed protein is fused to an ALFA-tag nanobody in HEK293 cells to bring the named protein to FLAG-tagged glucokinase (GCK); Myc marks an untargeted standard; higher = target protein stabilised (more abundant)
Conditions: target protein: 3xFLAG-MCP-GCK-ALFA reporter; HEK293 landing pad (RPLP)
outcome_measure: median log2 fold change
Answers are plain numbers.

binder	median log2 fold change
usp_38_diff_out_17_125_212 (protein) MFEELKKKIEELLEEARRLVEEAERALAAGAPTAEVRRLLDQAADALGQLAVELRKLREESKDKAQAAKVIKEATKEANELIDRLTELETRVFLREAEAA	-1.04
usp_38_diff_out_16_109_185 (protein) AAQREADRALAEAAIANFRALAAEARARAAALRARGAPQAVIDAYDDLAATADAAAAALEAALAAGEDLRAAVDREWDAVGAAAAAAEALRRAATAARSA	-0.358
usp_38_diff_out_18_28_399 (protein) EEEERRRLEEELRRLEEELDELIDEAVEAATKALTAHPGDEAVEALVRELFDHLGAAAAALREARELLRAGGDPEEVRRLLEEAREHLEKAREALKELKA	-0.117

Batch request: median log2 fold change for each of the following binders.
1. usp_38_diff_out_20_123_457 (protein) MEKLKAEAEALLKRAEALLENAKQILKFVKAGVLSEEQVEEHIEMIEEHIKYLEEELKKLKAAAPELKELLEKVEKAIKETKKVREEIKKELEKRRKEKE
2. usp_38_diff_out_18_28_382 (protein) AAAEREKLEAELKKLEAELNKLIDEATELATKKLTEHPDDEEVWKLVDELFDALGKAAAALNRARELLRAGGPAEEVKKALEEAEKYMKEAKKLMEELKK

Outgoing:
1: 0.24; 2: 0.595
